Data provenance: patent US20260265271A1

Measured Dmax accompanies every entry in the list below.
Target: IKZF2 (Homo sapiens, UniProt Q96SW2+Q9UKS7)
Construct: host or cells: Jurkat-IKZF2-HiBiT
Sequence (Q9UKS7 whole entry): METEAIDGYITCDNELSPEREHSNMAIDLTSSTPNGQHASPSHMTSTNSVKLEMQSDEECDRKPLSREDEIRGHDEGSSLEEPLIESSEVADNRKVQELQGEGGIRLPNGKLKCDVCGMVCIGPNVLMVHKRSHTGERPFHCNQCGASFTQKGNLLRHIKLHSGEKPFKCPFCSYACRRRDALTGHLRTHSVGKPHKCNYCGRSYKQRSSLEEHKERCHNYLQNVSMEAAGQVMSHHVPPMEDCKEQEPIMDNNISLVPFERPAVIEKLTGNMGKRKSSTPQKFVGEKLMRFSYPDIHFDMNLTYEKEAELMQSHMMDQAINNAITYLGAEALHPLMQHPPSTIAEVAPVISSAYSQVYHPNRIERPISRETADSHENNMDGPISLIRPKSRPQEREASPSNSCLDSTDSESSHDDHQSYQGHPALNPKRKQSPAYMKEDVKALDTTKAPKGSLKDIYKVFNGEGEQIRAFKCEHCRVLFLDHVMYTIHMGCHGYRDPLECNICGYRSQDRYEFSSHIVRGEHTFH
Sequence (Q96SW2 whole entry): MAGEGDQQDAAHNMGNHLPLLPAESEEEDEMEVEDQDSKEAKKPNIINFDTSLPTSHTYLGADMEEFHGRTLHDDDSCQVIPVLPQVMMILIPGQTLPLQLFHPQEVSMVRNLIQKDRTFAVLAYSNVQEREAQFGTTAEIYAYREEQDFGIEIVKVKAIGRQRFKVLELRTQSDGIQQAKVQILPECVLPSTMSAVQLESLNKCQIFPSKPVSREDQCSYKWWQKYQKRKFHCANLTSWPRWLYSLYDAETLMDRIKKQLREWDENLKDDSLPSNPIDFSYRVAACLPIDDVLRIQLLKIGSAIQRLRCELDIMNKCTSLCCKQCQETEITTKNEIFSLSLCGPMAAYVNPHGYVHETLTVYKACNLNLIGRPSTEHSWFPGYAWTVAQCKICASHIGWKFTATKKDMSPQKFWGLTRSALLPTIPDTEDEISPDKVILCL
Sequence (Q16531 2-1140 partner limits assumed): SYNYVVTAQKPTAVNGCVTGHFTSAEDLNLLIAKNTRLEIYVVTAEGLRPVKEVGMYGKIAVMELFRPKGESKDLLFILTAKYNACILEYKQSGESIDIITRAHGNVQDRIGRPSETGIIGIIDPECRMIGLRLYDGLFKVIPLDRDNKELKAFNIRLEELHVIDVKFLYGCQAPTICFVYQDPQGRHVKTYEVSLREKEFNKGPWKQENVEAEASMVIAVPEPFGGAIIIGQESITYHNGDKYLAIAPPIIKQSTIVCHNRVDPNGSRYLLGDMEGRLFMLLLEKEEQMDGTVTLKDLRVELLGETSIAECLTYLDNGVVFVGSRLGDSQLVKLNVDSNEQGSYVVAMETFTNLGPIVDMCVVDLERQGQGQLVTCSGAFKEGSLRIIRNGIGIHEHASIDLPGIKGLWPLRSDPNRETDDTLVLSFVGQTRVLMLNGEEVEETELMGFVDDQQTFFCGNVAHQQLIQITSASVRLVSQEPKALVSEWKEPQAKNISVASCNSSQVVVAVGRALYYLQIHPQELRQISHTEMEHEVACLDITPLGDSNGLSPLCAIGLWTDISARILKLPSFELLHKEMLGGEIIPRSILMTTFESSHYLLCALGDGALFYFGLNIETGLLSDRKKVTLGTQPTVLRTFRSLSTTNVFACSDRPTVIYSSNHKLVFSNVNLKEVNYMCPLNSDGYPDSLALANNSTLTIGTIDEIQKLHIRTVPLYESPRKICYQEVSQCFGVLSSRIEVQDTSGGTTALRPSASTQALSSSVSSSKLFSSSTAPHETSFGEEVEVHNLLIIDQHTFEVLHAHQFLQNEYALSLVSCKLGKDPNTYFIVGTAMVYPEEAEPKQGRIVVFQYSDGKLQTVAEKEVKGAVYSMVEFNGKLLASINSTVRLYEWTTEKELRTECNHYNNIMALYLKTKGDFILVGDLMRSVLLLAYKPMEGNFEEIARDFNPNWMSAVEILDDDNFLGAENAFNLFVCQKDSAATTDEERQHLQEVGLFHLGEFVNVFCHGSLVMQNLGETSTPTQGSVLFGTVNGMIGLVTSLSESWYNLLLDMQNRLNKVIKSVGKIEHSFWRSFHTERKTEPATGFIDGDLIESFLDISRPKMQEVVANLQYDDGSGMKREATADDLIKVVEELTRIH
Assay: IKZF2 HiBiT degradation assay (Jurkat-IKZF2-HiBiT)
Format: cell-based
Conditions: read-out: IKZF2 degradation Dmax (%)

Input Cc1ccc(C(=O)Nc2cccc(CN3CCN4c5cc6c(cc5OC[C@@H]4C3)C(=O)N([C@H]3CCC(=O)NC3=O)C6)c2)cc1 [Compound C23] , output reported Dmax.
77%

Input O=C1CCC(N2Cc3cc4c(cc3C2=O)OC[C@@H]2CN(Cc3ccc(F)cc3)CCN42)C(=O)N1 (stereo partly shown) [Compound C19] , output reported Dmax.
0%

Input O=C1CC[C@H](N2Cc3cc4c(cc3C2=O)OC[C@@H]2CN(CC3CCC3)CCN42)C(=O)N1 [Compound C31] , output reported Dmax.
58%

Input O=C1CCC(N2Cc3cc4c(cc3C2=O)OC[C@H]2CN(CC3CCCC3)CCN42)C(=O)N1 (stereo partly shown) [Compound C30] , output reported Dmax.
0%

* * *

Biological target: ER (Homo sapiens, UniProt P03372)
Sequence (P03372 whole entry): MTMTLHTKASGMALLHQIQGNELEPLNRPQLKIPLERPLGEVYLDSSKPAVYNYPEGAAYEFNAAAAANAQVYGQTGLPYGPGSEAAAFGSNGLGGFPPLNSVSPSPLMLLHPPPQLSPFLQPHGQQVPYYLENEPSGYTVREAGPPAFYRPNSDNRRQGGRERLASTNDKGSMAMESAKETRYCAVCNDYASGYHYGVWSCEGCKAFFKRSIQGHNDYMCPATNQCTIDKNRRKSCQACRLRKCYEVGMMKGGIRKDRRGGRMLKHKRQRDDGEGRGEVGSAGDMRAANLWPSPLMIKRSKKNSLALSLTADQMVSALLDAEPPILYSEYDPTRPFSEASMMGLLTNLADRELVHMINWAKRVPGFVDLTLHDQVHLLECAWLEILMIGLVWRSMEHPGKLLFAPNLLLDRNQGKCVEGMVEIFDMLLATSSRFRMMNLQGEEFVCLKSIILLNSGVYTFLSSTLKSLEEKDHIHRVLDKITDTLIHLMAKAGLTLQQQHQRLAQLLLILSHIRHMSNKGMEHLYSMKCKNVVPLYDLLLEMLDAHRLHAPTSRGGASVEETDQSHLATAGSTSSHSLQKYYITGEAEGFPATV
Experiment: ER degradation by in-cell western (ICW), MCF7 cells
Format: cell-based
Design: endogenous in cells; host or cells: MCF-7
Settings: MCF7 cells, ER in-cell western, 16 hours
Description: ERa degradative activity of compounds can be assessed in MCF-7 and T47D Cells. MCF-7 and T47D cell are seeded and are subsequently treated with the compounds at certain concentrations (e.g., 0.02 to 300 nM). DMSO can be used as vehicle control. Cells are fixed and are blocked with Intercept (PBS) Blocking Buffer (e.g., Li—COR, Odyssey Blocking Buffer), and are stained with ER (e.g., 1:500, Cell signaling) primary antibody for overnight at cold room. […]
Measured DC50 accompanies every entry in the list below.

INSERT INTO assay_data (molecule, experimental_readout, measurement) VALUES
  ('O=C1CC[C@H](N2Cc3cc4c(cc3C2=O)OC[C@@H]2CN(CC3CC5(CCN(c6ccc([C@@H]7c8ccc(O)cc8OC[C@@H]7c7ccccc7)cc6)CC5)C3)CCN42)C(=O)N1', 'DC50', '1 to 10 nM'),
  ('C[C@@H]1Cc2c(ccc3[nH]ncc23)[C@@H](c2ccc(N3CCC4(CC3)CC(CN3CCN5c6cc7c(cc6OC[C@@H]5C3)C(=O)N([C@@H]3CCC(=O)NC3=O)C7)C4)cn2)N1CC1(F)CC1', 'DC50', '< 1 nM'),
  ('C[C@@H]1Cc2c([nH]c3ccccc23)[C@@H](c2cnc(N3CCC4(CC3)CC(CN3CCN5c6ccc(C(=O)N[C@H]7CCC(=O)NC7=O)nc6OC[C@H]5C3)CO4)nc2)N1CC(F)F (stereo partly shown)', 'DC50', '1 to 10 nM');

Field: next molecule
Send back ER (Homo sapiens, UniProt P03372) DC50 of "O=C1CC[C@@H](N2Cc3cc4c(cc3C2=O)OC[C@H]2CN(CC3CCC5(CC3)CN(c3ccc([C@H]6c7ccc(O)cc7OC[C@H]6c6ccccc6)cc3)C5)CCN42)C(=O)N1" only.
1 to 10 nM

* * *

Target: IKZF2 (Homo sapiens, UniProt Q96SW2+Q9UKS7)
Construct: host or cells: Jurkat-IKZF2-HiBiT
Test: IKZF2 HiBiT degradation assay (Jurkat-IKZF2-HiBiT)
Type: cell-based
Settings: read-out: IKZF2 degradation DC50; Jurkat-IKZF2-HiBiT cells, 24 hours
EXPERIMENTAL_READOUT: DC50 (nM)
Provide the reading as a plain figure in nM.

INSERT INTO assay_data (compound, measured_on, experimental_readout, measurement) VALUES
  ('CC(=O)N1CC2(CCC(CN3CCN4c5cc6c(cc5OC[C@@H]4C3)C(=O)N(C3CCC(=O)NC3=O)C6)CC2)C1 (some centres unmarked) [Compound C6]', 'IKZF2 (Homo sapiens, UniProt Q96SW2+Q9UKS7)', 'DC50', 330),
  ('CC1(C)CCC(CN2CCN3c4cc5c(cc4OC[C@@H]3C2)C(=O)N([C@H]2CCC(=O)NC2=O)C5)CC1 [Compound C34]', 'IKZF2 (Homo sapiens, UniProt Q96SW2+Q9UKS7)', 'DC50', 414),
  ('O=C1CC[C@H](N2Cc3cc4c(cc3C2=O)OC[C@@H]2CN(CC3CC5CCC3CC5)CCN42)C(=O)N1 (some centres unmarked) [Compound C37]', 'IKZF2 (Homo sapiens, UniProt Q96SW2+Q9UKS7)', 'DC50', 318);

Input O=C1CC[C@H](N2Cc3cc4c(cc3C2=O)OC[C@@H]2CN(CC3CCC3)CCN42)C(=O)N1 [Compound C31] , output reported DC50.
1260

Input O=C1CCC(N2Cc3cc4c(cc3C2=O)OC[C@@H]2CN(CC3CCN(c5ccccc5)CC3)CCN42)C(=O)N1 (some centres unmarked) [Compound C7] , output reported DC50.
320

* * *

For reference, pIC50 measured on wild-type human CRBN protein (Homo sapiens):
Where a name gives a salt, the structure may show the parent alone.
When answering, recall that pIC50 equals minus log10 of the concentration in mol/L, and write that number alone.

Sample records with pIC50:
INSERT INTO measurements (compound, measured_on, measurement) VALUES
  ('CN1C[C@@H]2CNCCN2c2cc3c(cc21)C(=O)N(C1CCC(=O)NC1=O)C3 (some centres unmarked) [Compound B7, trifluoroacetate salt]', 'wild-type human CRBN protein (Homo sapiens)', 6.13),
  ('CN1CCN2c3ccc4c(c3N(C)C[C@@H]2C1)CN(C1CCC(=O)NC1=O)C4=O (some centres unmarked)', 'wild-type human CRBN protein (Homo sapiens)', 6.24),
  ('CN(C(=O)c1ccc2c(c1)OC[C@@H]1CNCCN21)C1CCC(=O)NC1=O (some centres unmarked)', 'wild-type human CRBN protein (Homo sapiens)', 5.47),
  ('O=C1CC[C@H](N2Cc3c(ccc4c3OC[C@@H]3CN(Cc5ccc(C(F)F)cc5)CCN43)C2=O)C(=O)N1', 'wild-type human CRBN protein (Homo sapiens)', 7.05),
  ('CCN1CCN2c3ccc4c(c3OC[C@H]2C1)CN([C@H]1CCC(=O)NC1=O)C4=O', 'wild-type human CRBN protein (Homo sapiens)', 6.33);

Send back wild-type human CRBN protein (Homo sapiens) pIC50 of O=C1CCC(N2Cc3cc4c(cc3C2=O)OC[C@@H]2CNCCN42)C(=O)N1 (some centres unmarked) [Compound B1, hydrochloride salt] only.
5.68

Send back wild-type human CRBN protein (Homo sapiens) pIC50 of "O=C1CC[C@H](NC(=O)c2ccc3c(c2)OC[C@@H]2CNCCN32)C(=O)N1" only.
4.60

Send back wild-type human CRBN protein (Homo sapiens) pIC50 of "CC(C)(C)OC(=O)N1CCN2c3cc4c(cc3OC[C@@H]2C1)C(=O)N([C@@H]1CCC(=O)NC1=O)C4" only.
5.46

* * *

Target: IKZF2 (Homo sapiens, UniProt Q96SW2+Q9UKS7)
Construct: host or cells: Jurkat-IKZF2-HiBiT
Assay: IKZF2 HiBiT degradation assay (Jurkat-IKZF2-HiBiT)
Assay type: cell-based
Details: read-out: IKZF2 degradation Dmax (%)
EXPERIMENTAL_READOUT: Dmax (%)
Provide the reading as a plain figure in %.

Input O=C1CC[C@H](N2Cc3cc4c(cc3C2=O)OC[C@@H]2CN(CC3CCCC3)CCN42)C(=O)N1 [Compound C29] , output reported Dmax.
61

Input O=C1CCC(N2Cc3cc4c(cc3C2=O)OC[C@@H]2CN(Cc3ccccc3)CCN42)C(=O)N1 (stereo partly shown) [Compound C1] , output reported Dmax.
27

Input C[C@H]1CC[C@H](CN2CCN3c4cc5c(cc4OC[C@@H]3C2)C(=O)N([C@H]2CCC(=O)NC2=O)C5)CC1 [Compound C33] , output reported Dmax.
67

Input CC(=O)N1CCC(CCN2CCN3c4cc5c(cc4OC[C@@H]3C2)C(=O)N(C2CCC(=O)NC2=O)C5)CC1 (stereo partly shown) [Compound C5] , output reported Dmax.
38

Input CCCN1CCN2c3cc4c(cc3OC[C@@H]2C1)C(=O)N(C1CCC(=O)NC1=O)C4 (stereo partly shown) [Compound C3] , output reported Dmax.
58

Input O=C1CC[C@H](N2Cc3cc4c(cc3C2=O)OC[C@@H]2CN(CC3CC5CCC3C5)CCN42)C(=O)N1 (stereo partly shown) [Compound C36] , output reported Dmax.
68

Input O=C1CC[C@H](N2Cc3cc4c(cc3C2=O)OC[C@@H]2CN(CC3CC5CCC3CC5)CCN42)C(=O)N1 (stereo partly shown) [Compound C37] , output reported Dmax.
69

* * *

Target: IKZF2 (Homo sapiens, UniProt Q96SW2+Q9UKS7)
Construct: host or cells: Jurkat-IKZF2-HiBiT
Experiment: IKZF2 HiBiT degradation assay (Jurkat-IKZF2-HiBiT)
Assay type: cell-based
Details: read-out: IKZF2 degradation Dmax (%)
Method: Degradation of IKZF2 protein was determined by IKZF2 HiBiT assay using the Jurkat-IKZF2-HiBiT (Promega) cell line. […] The luminescent signal was measured using a CALRIOstar plate reader (BMG Labtech). The readings were normalized to the DMSO-treated cells and the IC50 was calculated by nonlinear regression (four parameters sigmoid fitted with variable slope, least squares fit, and no constraint) analysis using the GraphPad Prism 8 software.
Measured Dmax accompanies every entry in the list below.
Provide the reading as a plain figure in %.

INSERT INTO assay_data (compound, experimental_readout, measurement) VALUES
  ('O=C1CC[C@H](N2Cc3cc4c(cc3C2=O)OC[C@@H]2CN(CC3CCC5(CC3)COC5)CCN42)C(=O)N1 [Compound C35]', 'Dmax', 66),
  ('CC(=O)N1CC2(CCC(CN3CCN4c5cc6c(cc5OC[C@@H]4C3)C(=O)N(C3CCC(=O)NC3=O)C6)CC2)C1 (stereo partly shown) [Compound C6]', 'Dmax', 62),
  ('O=C1CCC(N2Cc3cc4c(cc3C2=O)OC[C@@H]2CN(CC3CCCC3)CCN42)C(=O)N1 (stereo partly shown) [Compound C4]', 'Dmax', 61);

Field: next compound
Input CC1(C)CCC(CN2CCN3c4cc5c(cc4OC[C@@H]3C2)C(=O)N([C@H]2CCC(=O)NC2=O)C5)CC1 [Compound C34] , output reported Dmax.
68
